Conditions: in ethyl acetate, 298.15 K
Parameter measured: solubility (mole fraction)

In one line, give reported solubility (mole fraction) of the entry Cc1ccc(S(C)(=O)=O)cc1 . 0.123

* * *

Conditions: in n-propanol, 288.15 K
Parameter measured: solubility (mole fraction)
Answers are plain numbers.

In one line, give reported solubility (mole fraction) of the entry Cc1ccc(S(C)(=O)=O)cc1 . 0.012

* * *

Conditions: in n-propanol, 283.15 K
Parameter measured: solubility (mole fraction)

In one line, give reported solubility (mole fraction) of the entry Cc1ccc(S(C)(=O)=O)cc1 . 0.00839

* * *

Settings: in ethanol, 313.15 K
Parameter measured: solubility (mole fraction)
Give bare numbers.

In one line, give reported solubility (mole fraction) of the entry Cc1ccc(S(C)(=O)=O)cc1 . 0.055

* * *

Details: in n-propanol, 308.15 K
Parameter measured: solubility (mole fraction)
Give bare numbers.

In one line, give reported solubility (mole fraction) of the entry Cc1ccc(S(C)(=O)=O)cc1 . 0.04

* * *

Conditions: in ethyl acetate, 283.15 K
Parameter measured: solubility (mole fraction)
One number for each entry.

In one line, give reported solubility (mole fraction) of the entry Cc1ccc(S(C)(=O)=O)cc1 . 0.0732

* * *

Conditions: in DMF, 293.15 K
Parameter measured: solubility (mole fraction)
Give bare numbers.

In one line, give reported solubility (mole fraction) of the entry Cc1ccc(S(C)(=O)=O)cc1 . 0.208

* * *

Conditions: in acetonitrile, 298.15 K
Parameter measured: solubility (mole fraction)
Answers are plain numbers.

In one line, give reported solubility (mole fraction) of the entry Cc1ccc(S(C)(=O)=O)cc1 . 0.183

* * *

Conditions: in methanol, 313.15 K
Parameter measured: solubility (mole fraction)
Give bare numbers.

In one line, give reported solubility (mole fraction) of the entry Cc1ccc(S(C)(=O)=O)cc1 . 0.0858

* * *

Settings: in acetone, 318.15 K
Parameter measured: solubility (mole fraction)
Give bare numbers.

In one line, give reported solubility (mole fraction) of the entry Cc1ccc(S(C)(=O)=O)cc1 . 0.379

* * *

Details: in acetone, 313.15 K
Parameter measured: solubility (mole fraction)
Give bare numbers.

In one line, give reported solubility (mole fraction) of the entry Cc1ccc(S(C)(=O)=O)cc1 . 0.322

* * *

Details: in ethyl acetate, 318.15 K
Parameter measured: solubility (mole fraction)
One number for each entry.

In one line, give reported solubility (mole fraction) of the entry Cc1ccc(S(C)(=O)=O)cc1 . 0.236

* * *

Settings: in isopropanol, 298.15 K
Parameter measured: solubility (mole fraction)
One number for each entry.

In one line, give reported solubility (mole fraction) of the entry Cc1ccc(S(C)(=O)=O)cc1 . 0.0149

* * *

Details: in ethanol, 283.15 K
Parameter measured: solubility (mole fraction)
Answers are plain numbers.

In one line, give reported solubility (mole fraction) of the entry Cc1ccc(S(C)(=O)=O)cc1 . 0.00993
